These measurements were taken from patent US20250152516A1.

experiment: Compaction properties (tabletability, tablet tensile strength, compaction simulator) of sodium caprate forms; assay type: physicochemical; conditions: tablets of each form; high pressure = above approximately 50 MPa
METRIC: sticking tendency during tableting

[[record]]
compound = "CCCCCCCCCC(=O)[O-].[Na+] [Form D, sodium caprate]"
val = "high sticking tendency"

[[record]]
compound = "CCCCCCCCCC(=O)[O-].[Na+] [Form B, sodium caprate]"
val = "high sticking tendency"

[[record]]
compound = "CCCCCCCCCC(=O)[O-].[Na+] [Form C, sodium caprate]"
val = "high sticking tendency"

